Test system: Escherichia coli TOP10;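 note: peptides expressed intracellularly from a pBAD plasmid library in pooled LB shake-flask culture, induced with 0.3% L-arabinose, DNA abundance read by NGS, three biological replicates, DESeq2 with apeglm shrinkage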
testDescription: shrunken log2 fold change of peptide-encoding DNA abundance (4.5 h post-induction vs induction); higher = less antimicrobial activity (less host growth inhibition)
appliedConditions: time post-induction: 4.5 h; library: site-saturation at positions 5, 18, 19, 20
reportedProperty: shrunken log2 fold change
Give your answer as a number; write no unit.

Task: shrunken log2 fold change lookup needed for RRIRTRPPRLPRPRPRPPDSPRP , thanks.
Result: -0.0615

Task: shrunken log2 fold change lookup needed for RRIRRRPPRLPRPRPRPVARPRP , thanks.
Result: 0.896

Task: shrunken log2 fold change lookup needed for RRIRMRPPRLPRPRPRPDGRPRP , thanks.
Result: -0.00101

Task: shrunken log2 fold change lookup needed for RRIRARPPRLPRPRPRPTNNPRP , thanks.
Result: 0.00693

Task: shrunken log2 fold change lookup needed for RRIRNRPPRLPRPRPRPYSHPRP , thanks.
Result: -0.317

Task: shrunken log2 fold change lookup needed for RRIRWRPPRLPRPRPRPHRVPRP , thanks.
Result: -0.0781

Task: shrunken log2 fold change lookup needed for RRIRKRPPRLPRPRPRPLIHPRP , thanks.
Result: 1.09

Task: shrunken log2 fold change lookup needed for RRIRIRPPRLPRPRPRPQAHPRP , thanks.
Result: -0.261

Task: shrunken log2 fold change lookup needed for RRIRYRPPRLPRPRPRPGKYPRP , thanks.
Result: -0.466

Task: shrunken log2 fold change lookup needed for RRIRWRPPRLPRPRPRPELDPRP , thanks.
Result: 1.82

Task: shrunken log2 fold change lookup needed for RRIRKRPPRLPRPRPRPKDSPRP , thanks.
Result: 0.218

Task: shrunken log2 fold change lookup needed for RRIRKRPPRLPRPRPRPHEIPRP , thanks.
Result: 0.704

Task: shrunken log2 fold change lookup needed for RRIRARPPRLPRPRPRPALGPRP , thanks.
Result: 0.73

Task: shrunken log2 fold change lookup needed for RRIRSRPPRLPRPRPRPEWCPRP , thanks.
Result: 0.219

Task: shrunken log2 fold change lookup needed for RRIRIRPPRLPRPRPRPIRKPRP , thanks.
Result: -0.0303
